target: UniProtKB Q86YV6; test: KINOMEscan competition binding; conditions: compound 10.0 µM
Sequence (Q86YV6 whole entry, looked up): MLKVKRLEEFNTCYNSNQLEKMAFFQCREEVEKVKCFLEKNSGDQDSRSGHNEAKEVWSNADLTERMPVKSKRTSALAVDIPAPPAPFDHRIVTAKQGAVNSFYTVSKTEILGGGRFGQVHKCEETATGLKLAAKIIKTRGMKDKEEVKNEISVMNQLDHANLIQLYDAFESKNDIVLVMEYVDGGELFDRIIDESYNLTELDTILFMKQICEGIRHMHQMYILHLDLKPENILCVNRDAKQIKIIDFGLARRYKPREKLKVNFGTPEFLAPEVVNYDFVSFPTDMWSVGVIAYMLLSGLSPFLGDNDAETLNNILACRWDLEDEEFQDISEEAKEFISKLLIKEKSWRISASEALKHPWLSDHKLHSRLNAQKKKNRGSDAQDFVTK
Strictly below 50% in kinase still bound, per cent of control: 1 (yes). Otherwise: 0 (no).

>>> class_name("Cc1n[nH]c2ccc(-c3cncc(OC[C@@H](N)Cc4c[nH]c5ccccc45)c3)cc12")
"1 (yes)"
>>> class_name("O=c1cc(N2CCOCC2)oc2c(-c3cccc4c3sc3ccccc34)cccc12")
"0 (no)"
>>> class_name("CCN(CC)CCCCNc1ncc2cc(-c3cc(OC)cc(OC)c3)c(NC(=O)NC(C)(C)C)nc2n1")
"0 (no)"
>>> class_name("COc1cc2ncn(-c3cc(OCc4ccccc4C(F)(F)F)c(C(N)=O)s3)c2cc1OC")
"1 (yes)"
>>> class_name("CNC(=O)c1cc(Oc2ccc(NC(=O)Nc3ccc(Cl)c(C(F)(F)F)c3)cc2)ccn1")
"0 (no)"
>>> class_name("C[C@@H](Oc1cc(-c2cnn(C3CCNCC3)c2)cnc1N)c1c(Cl)ccc(F)c1Cl")
"0 (no)"
>>> class_name("N#CCNC(=O)c1ccc(-c2ccnc(Nc3ccc(N4CCOCC4)cc3)n2)cc1")
"1 (yes)"
>>> class_name("O=C(Nc1cccc(Nc2ncc(Br)c(NCCc3cnc[nH]3)n2)c1)N1CCCC1")
"1 (yes)"

----------
target: EGFR (human); assay: KINOMEscan competition binding; conditions: compound 10.0 µM
Catalogue of kinase still bound, per cent of control readings, one per entry.
readout: kinase still bound, per cent of control (%)

>>> value_reported("COc1cc(N2CCN(C)CC2)ccc1Nc1ncc2c(n1)N(C)c1ccccc1C(=O)N2C")
100
>>> value_reported("C=CC(=O)Nc1ccc(CN(C(=O)Nc2c(Cl)c(OC)cc(OC)c2Cl)c2cc(Nc3ccc(N4CCN(C)CC4)cc3)ncn2)cc1")
0.35
>>> value_reported("O=C(Nc1cccc(Nc2ncc(Br)c(NCCc3cnc[nH]3)n2)c1)N1CCCC1")
47
>>> value_reported("N#CCNC(=O)c1ccc(-c2ccnc(Nc3ccc(N4CCOCC4)cc3)n2)cc1")
100
>>> value_reported("CS(=O)(=O)N1CCN(Cc2cc3nc(-c4cccc5[nH]ncc45)nc(N4CCOCC4)c3s2)CC1")
100
>>> value_reported("NC(=O)Nc1cc(-c2cccc(F)c2)sc1C(=O)N[C@@H]1CCCNC1")
0.25
>>> value_reported("O=c1cc(N2CCOCC2)oc2c(-c3cccc4c3sc3ccccc34)cccc12")
94
>>> value_reported("C=CC(=O)Nc1cc(-n2c(=O)ccc3cnc4ccc(-c5cn[nH]c5)cc4c32)ccc1C")
30
>>> value_reported("CCN(CC)CCCCNc1ncc2c(n1)N(C)C(=O)N(c1c(Cl)c(OC)cc(OC)c1Cl)C2")
100
>>> value_reported("CN(C)C/C=C/C(=O)Nc1ccc(C(=O)Nc2cccc(Nc3nccc(-c4cccnc4)n3)c2)cc1")
100
>>> value_reported("CCN1CCN(C(=O)Cc2ccc(Nc3ncc(F)c(Nc4ccc(C(=O)Nc5ccccc5Cl)cc4)n3)cc2)CC1")
26

----------
Catalogue of kinase still bound, per cent of control readings, one per entry.
target: MAP3K3 (human) (UniProt Q99759); experiment: KINOMEscan competition binding; conditions: compound 10.0 µM
Sequence (Q99759 whole entry, looked up): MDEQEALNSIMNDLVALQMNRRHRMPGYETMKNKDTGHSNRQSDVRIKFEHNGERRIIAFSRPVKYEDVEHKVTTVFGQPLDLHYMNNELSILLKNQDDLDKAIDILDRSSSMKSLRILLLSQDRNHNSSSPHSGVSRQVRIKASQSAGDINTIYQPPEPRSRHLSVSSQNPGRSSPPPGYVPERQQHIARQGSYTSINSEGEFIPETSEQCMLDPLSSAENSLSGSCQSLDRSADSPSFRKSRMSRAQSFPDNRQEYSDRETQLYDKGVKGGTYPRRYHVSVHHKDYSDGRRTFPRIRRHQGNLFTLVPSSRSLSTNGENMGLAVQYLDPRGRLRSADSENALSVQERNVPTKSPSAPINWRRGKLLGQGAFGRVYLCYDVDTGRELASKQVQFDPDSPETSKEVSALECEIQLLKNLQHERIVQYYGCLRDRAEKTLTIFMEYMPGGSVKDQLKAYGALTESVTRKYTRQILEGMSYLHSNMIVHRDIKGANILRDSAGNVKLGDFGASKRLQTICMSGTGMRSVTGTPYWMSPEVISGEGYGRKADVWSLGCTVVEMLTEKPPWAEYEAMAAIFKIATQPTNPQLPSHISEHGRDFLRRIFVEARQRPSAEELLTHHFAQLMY
readout: kinase still bound, per cent of control (%)

>>> value_reported("O=C(Nc1cccc(Nc2ncc(Br)c(NCCc3cnc[nH]3)n2)c1)N1CCCC1")
0.3
>>> value_reported("CNC(=O)c1ccc(Nc2cc(Nc3ccccc3S(=O)(=O)C(C)C)c3cc[nH]c3n2)nc1")
4.8
>>> value_reported("C=CC(=O)Nc1ccc(CN(C(=O)Nc2c(Cl)c(OC)cc(OC)c2Cl)c2cc(Nc3ccc(N4CCN(C)CC4)cc3)ncn2)cc1")
5.8
>>> value_reported("CCN1CCN(C(=O)Cc2ccc(Nc3ncc(F)c(Nc4ccc(C(=O)Nc5ccccc5Cl)cc4)n3)cc2)CC1")
49
>>> value_reported("C=CC(=O)Nc1cc(-n2c(=O)ccc3cnc4ccc(-c5cn[nH]c5)cc4c32)ccc1C")
91
>>> value_reported("NC(=O)Nc1cc(-c2cccc(F)c2)sc1C(=O)N[C@@H]1CCCNC1")
0
>>> value_reported("CN(C)C/C=C/C(=O)Nc1ccc(C(=O)Nc2cccc(Nc3nccc(-c4cccnc4)n3)c2)cc1")
93
>>> value_reported("N#CCNC(=O)c1ccc(-c2ccnc(Nc3ccc(N4CCOCC4)cc3)n2)cc1")
51
>>> value_reported("COc1ccc(N(C(=O)Oc2c(C)cccc2C)c2ccnc(Nc3ccc(N4CCN(C)CC4)cc3)n2)c(OC)c1")
0.75

----------
target: UniProtKB P14616; assay: KINOMEscan competition binding; details: compound 10.0 µM
Sequence (P14616 whole entry, looked up): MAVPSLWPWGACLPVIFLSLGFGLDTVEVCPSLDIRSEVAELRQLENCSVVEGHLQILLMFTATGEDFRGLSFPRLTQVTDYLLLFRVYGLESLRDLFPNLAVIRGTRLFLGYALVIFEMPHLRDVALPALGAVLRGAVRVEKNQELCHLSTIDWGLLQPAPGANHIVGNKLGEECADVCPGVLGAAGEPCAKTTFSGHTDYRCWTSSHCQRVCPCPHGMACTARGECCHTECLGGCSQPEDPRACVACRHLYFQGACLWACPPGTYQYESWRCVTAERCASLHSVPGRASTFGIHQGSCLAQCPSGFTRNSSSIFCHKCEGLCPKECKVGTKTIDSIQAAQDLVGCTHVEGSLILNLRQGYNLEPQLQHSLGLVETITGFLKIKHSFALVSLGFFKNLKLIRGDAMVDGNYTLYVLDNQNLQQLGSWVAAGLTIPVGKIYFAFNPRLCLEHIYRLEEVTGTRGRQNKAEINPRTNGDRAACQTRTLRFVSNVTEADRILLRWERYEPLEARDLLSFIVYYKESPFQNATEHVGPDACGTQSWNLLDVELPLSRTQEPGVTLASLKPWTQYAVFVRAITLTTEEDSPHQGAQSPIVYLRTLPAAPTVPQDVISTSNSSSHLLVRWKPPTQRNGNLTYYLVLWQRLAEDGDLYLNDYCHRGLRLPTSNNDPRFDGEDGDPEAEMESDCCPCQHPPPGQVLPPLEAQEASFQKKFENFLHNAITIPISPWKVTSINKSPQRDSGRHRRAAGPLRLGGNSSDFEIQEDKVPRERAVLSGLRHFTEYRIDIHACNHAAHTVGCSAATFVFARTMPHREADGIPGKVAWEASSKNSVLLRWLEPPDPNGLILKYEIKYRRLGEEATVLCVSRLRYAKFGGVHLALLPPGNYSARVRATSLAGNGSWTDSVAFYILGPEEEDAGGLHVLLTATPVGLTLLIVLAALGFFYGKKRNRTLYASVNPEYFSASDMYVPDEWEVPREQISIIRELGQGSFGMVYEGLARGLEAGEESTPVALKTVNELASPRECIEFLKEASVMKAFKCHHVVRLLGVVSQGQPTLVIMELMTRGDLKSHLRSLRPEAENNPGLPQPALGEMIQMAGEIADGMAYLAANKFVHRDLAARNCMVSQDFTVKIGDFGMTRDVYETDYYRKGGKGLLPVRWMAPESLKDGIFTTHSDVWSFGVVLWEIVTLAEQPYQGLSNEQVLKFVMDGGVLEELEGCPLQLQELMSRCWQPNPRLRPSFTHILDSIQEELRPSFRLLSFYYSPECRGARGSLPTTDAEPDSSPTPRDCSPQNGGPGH
Catalogue of kinase still bound, per cent of control readings, one per entry.
readout: kinase still bound, per cent of control

>>> value_reported("CN(C)C/C=C/C(=O)Nc1ccc(C(=O)Nc2cccc(Nc3nccc(-c4cccnc4)n3)c2)cc1")
"100%"
>>> value_reported("CCN(CC)CCCCNc1ncc2cc(-c3cc(OC)cc(OC)c3)c(NC(=O)NC(C)(C)C)nc2n1")
"100%"
>>> value_reported("COc1cc(N2CCN(C)CC2)ccc1Nc1ncc2c(n1)N(C)c1ccccc1C(=O)N2C")
"100%"
>>> value_reported("N#CCNC(=O)c1ccc(-c2ccnc(Nc3ccc(N4CCOCC4)cc3)n2)cc1")
"100%"
>>> value_reported("CCN1CCN(C(=O)Cc2ccc(Nc3ncc(F)c(Nc4ccc(C(=O)Nc5ccccc5Cl)cc4)n3)cc2)CC1")
"63%"
>>> value_reported("Cc1n[nH]c2ccc(-c3cncc(OC[C@@H](N)Cc4c[nH]c5ccccc45)c3)cc12")
"100%"
>>> value_reported("O=C1NC(=O)/C(=C/c2ccc3nccc(-c4ccncc4)c3c2)S1")
"70%"
>>> value_reported("C[C@@H](Oc1cc(-c2cnn(C3CCNCC3)c2)cnc1N)c1c(Cl)ccc(F)c1Cl")
"0.25%"
>>> value_reported("NC(=O)Nc1cc(-c2cccc(F)c2)sc1C(=O)N[C@@H]1CCCNC1")
"22%"
>>> value_reported("CCN(CC)CCCCNc1ncc2c(n1)N(C)C(=O)N(c1c(Cl)c(OC)cc(OC)c1Cl)C2")
"100%"
>>> value_reported("CS(=O)(=O)N1CCN(Cc2cc3nc(-c4cccc5[nH]ncc45)nc(N4CCOCC4)c3s2)CC1")
"100%"
>>> value_reported("C=CC(=O)Nc1ccc(CN(C(=O)Nc2c(Cl)c(OC)cc(OC)c2Cl)c2cc(Nc3ccc(N4CCN(C)CC4)cc3)ncn2)cc1")
"18%"
>>> value_reported("COc1cc(C(=O)N2CCC(N3CCN(C)CC3)CC2)ccc1Nc1ncc2c(n1)N(C)c1ccccc1C(=O)N2C")
"97%"
>>> value_reported("O=C(Nc1cccc(Nc2ncc(Br)c(NCCc3cnc[nH]3)n2)c1)N1CCCC1")
"4.8%"
>>> value_reported("C=CC(=O)Nc1cc(-n2c(=O)ccc3cnc4ccc(-c5cn[nH]c5)cc4c32)ccc1C")
"100%"
>>> value_reported("COc1ccc(N(C(=O)Oc2c(C)cccc2C)c2ccnc(Nc3ccc(N4CCN(C)CC4)cc3)n2)c(OC)c1")
"100%"
>>> value_reported("COCC(=O)NC/C=C/c1ccc2ncnc(Nc3ccc(Oc4ccc(C)nc4)c(C)c3)c2c1")
"100%"
>>> value_reported("CNC(=O)c1ccc(Nc2cc(Nc3ccccc3S(=O)(=O)C(C)C)c3cc[nH]c3n2)nc1")
"3.2%"

----------
biological target: MARK4 (human); assay: KINOMEscan competition binding; conditions: compound 10.0 µM
Catalogue of kinase still bound, per cent of control readings, one per entry.
readout: kinase still bound, per cent of control (%)

>>> value_reported("CNC(=O)c1ccc(Nc2cc(Nc3ccccc3S(=O)(=O)C(C)C)c3cc[nH]c3n2)nc1")
4
>>> value_reported("CCN(CC)CCCCNc1ncc2cc(-c3cc(OC)cc(OC)c3)c(NC(=O)NC(C)(C)C)nc2n1")
100
>>> value_reported("COc1cc2ncnc(-n3nc(-c4ccccn4)nc3N)c2cc1OC")
75
>>> value_reported("Cc1n[nH]c2ccc(-c3cncc(OC[C@@H](N)Cc4c[nH]c5ccccc45)c3)cc12")
100
>>> value_reported("COc1cc2ncn(-c3cc(OCc4ccccc4C(F)(F)F)c(C(N)=O)s3)c2cc1OC")
99
>>> value_reported("O=C(Nc1cccc(Nc2ncc(Br)c(NCCc3cnc[nH]3)n2)c1)N1CCCC1")
0
>>> value_reported("O=C1NC(=O)/C(=C/c2ccc3nccc(-c4ccncc4)c3c2)S1")
89
>>> value_reported("C=CC(=O)Nc1cc(-n2c(=O)ccc3cnc4ccc(-c5cn[nH]c5)cc4c32)ccc1C")
64

----------
test system: EGFR (human), P00533 [752-759 del]; experiment: KINOMEscan competition binding; conditions: compound 10.0 µM
Sequence (P00533 whole entry, looked up, stated change not applied): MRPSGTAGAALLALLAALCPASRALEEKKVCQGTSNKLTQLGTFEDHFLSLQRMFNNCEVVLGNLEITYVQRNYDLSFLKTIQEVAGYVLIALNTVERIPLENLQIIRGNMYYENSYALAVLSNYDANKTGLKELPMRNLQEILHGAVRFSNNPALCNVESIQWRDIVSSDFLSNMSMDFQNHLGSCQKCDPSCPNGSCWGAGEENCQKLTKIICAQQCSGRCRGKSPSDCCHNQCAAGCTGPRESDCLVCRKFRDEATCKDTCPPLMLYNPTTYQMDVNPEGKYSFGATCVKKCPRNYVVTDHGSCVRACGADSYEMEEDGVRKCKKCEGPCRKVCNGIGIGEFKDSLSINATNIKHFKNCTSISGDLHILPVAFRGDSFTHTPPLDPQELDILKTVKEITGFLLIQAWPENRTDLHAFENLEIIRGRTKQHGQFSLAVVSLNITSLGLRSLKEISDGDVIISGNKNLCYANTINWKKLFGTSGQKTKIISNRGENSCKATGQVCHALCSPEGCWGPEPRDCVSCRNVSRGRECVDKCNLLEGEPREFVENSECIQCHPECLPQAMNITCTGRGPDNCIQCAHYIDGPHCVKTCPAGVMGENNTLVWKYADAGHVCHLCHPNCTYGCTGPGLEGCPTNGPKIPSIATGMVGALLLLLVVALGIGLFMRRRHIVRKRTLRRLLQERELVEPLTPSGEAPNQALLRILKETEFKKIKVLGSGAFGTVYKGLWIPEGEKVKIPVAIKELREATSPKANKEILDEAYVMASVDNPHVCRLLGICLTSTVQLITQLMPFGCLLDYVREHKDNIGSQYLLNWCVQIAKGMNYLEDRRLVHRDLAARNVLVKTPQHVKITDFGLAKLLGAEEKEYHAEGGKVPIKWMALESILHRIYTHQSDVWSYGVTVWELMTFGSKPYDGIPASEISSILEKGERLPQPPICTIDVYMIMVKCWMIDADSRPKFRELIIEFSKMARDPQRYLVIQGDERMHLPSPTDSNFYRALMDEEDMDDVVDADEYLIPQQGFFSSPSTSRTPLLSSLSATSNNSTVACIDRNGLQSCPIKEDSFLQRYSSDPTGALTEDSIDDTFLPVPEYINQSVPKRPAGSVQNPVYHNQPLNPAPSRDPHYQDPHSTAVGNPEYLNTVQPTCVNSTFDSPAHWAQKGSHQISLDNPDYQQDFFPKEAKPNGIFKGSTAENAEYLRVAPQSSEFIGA
Strictly below 70% in kinase still bound, per cent of control: true. Otherwise: false.

>>> class_name("Cc1cn(-c2cc(C(=O)Nc3ccc(C)c(NC(=O)c4ccno4)c3)cc(C(F)(F)F)c2)cn1")
"false"
>>> class_name("CS(=O)(=O)N1CCN(Cc2cc3nc(-c4cccc5[nH]ncc45)nc(N4CCOCC4)c3s2)CC1")
"false"
>>> class_name("COc1cc2c(Nc3ccc(NC(=O)c4ccccc4)cc3)ncnc2cc1OCCCN1CCOCC1")
"true"
>>> class_name("CCN1CCN(C(=O)Cc2ccc(Nc3ncc(F)c(Nc4ccc(C(=O)Nc5ccccc5Cl)cc4)n3)cc2)CC1")
"true"
>>> class_name("O=C1Nc2ccc(I)cc2/C1=C/c1cc(Br)c(O)c(Br)c1")
"true"
>>> class_name("C[C@@H](Oc1cc(-n2cnc3ccc(CN4CCN(C)CC4)cc32)sc1C(N)=O)c1ccccc1C(F)(F)F")
"false"
>>> class_name("COc1cc(C(=O)N2CCC(N3CCN(C)CC3)CC2)ccc1Nc1ncc2c(n1)N(C)c1ccccc1C(=O)N2C")
"false"
